# Tgt: Complement factor D (Homo sapiens)
# Sequence (P00746 whole entry): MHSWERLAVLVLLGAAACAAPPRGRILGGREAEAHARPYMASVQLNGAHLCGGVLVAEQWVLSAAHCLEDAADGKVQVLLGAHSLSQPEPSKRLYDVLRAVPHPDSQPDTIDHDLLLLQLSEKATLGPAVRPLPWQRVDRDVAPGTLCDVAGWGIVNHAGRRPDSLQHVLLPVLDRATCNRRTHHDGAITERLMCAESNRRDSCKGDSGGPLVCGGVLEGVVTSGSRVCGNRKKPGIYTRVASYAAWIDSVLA
# Protocol Description: Human Factor D Assay: Human Factor D (purified from human serum, Complement Technology, Inc.) at 80 nM final concentration is incubated with test compound at various concentrations for 5 minutes at room temperature in 50 mM Tris, 1M NaCl, pH 7.5. A synthetic substrate Z-L-Lys-SBzl and DTNB (Ellman's reagent) are added to final concentrations of 100 μM each. Absorbance at 405 nm (A405) is recorded at 30 second intervals for 30 minutes using a microplate spectrophotometer. IC50values are calculated by nonlinear regression of complement Factor D reaction rates as a function of test compound concentration.
Quantity: IC50

[[record]]
molecule = "Cc1cccc(CC(O)[C@@H]2C[C@@H](F)CN2C(=O)Cn2cc(C(N)=O)c3cc(C(=O)NS(=O)(=O)C4CC4)ccc32)n1 (some centres not stated)"
quantity = "IC50"
readout_value = "> 10 µM"

[[record]]
molecule = "Cc1cccc(CC(O)[C@H]2C[C@@H](F)CN2C(=O)Cn2cc(C(N)=O)c3cc(C(=O)NS(=O)(=O)C4CC4)ccc32)n1 (some centres not stated)"
quantity = "IC50"
readout_value = "> 10 µM"

